# TESTED_ON: kappa opioid receptor (KOR) (Homo sapiens)
# Construct: host or cells: U2OS (Tango OPRK1-bla U2OS)
# Sequence (P41145 whole entry): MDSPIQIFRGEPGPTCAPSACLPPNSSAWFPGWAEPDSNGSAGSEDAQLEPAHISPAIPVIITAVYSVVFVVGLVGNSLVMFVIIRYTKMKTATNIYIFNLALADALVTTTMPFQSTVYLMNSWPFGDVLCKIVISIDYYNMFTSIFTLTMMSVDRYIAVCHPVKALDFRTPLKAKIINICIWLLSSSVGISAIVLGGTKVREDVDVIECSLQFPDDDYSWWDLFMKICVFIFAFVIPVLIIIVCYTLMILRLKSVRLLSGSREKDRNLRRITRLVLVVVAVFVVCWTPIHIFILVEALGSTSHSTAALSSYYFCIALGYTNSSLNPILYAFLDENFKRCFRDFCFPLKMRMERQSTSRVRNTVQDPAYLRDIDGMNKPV
# EXPERIMENT_DESCRIPTION: OPRKappa 1 Tango B-Arrestin Assay, antagonist mode (Tango OPRK1-bla U2OS cells, U50488 EC80 challenge)
# Format: cell-based
# RUN_CONDITIONS: antagonist mode, Tango OPRK1-bla U2OS cells, 6 nM U50488 challenge
# Description: OPRKappa 1 Tango B-Arrestin Assay Protocol-Antagonist Mode. […] The assay uses Tango OPRK1-bla U2OS cells which express OPRK1 linked to a GAL4-VP16 transcription factor via a TEV protease site. […] BLA expression is monitored by measuring fluorescence resonance energy transfer (FRET) of a cleavable, fluorogenic, cell-permeable BLA substrate. […] The Percent Inhibition was calculated from the median ratio as follows: […]

SMILES	IC50
CCc1cc(F)c2nc(N3CCN(/C(=N\C#N)NC4CCOCC4)C[C@H]3C)c(-c3ccn(C)n3)c(C)c2c1	10 to 100 nM
CCc1cc(F)c2nc(N3CC[C@@H](N[C@@H]4CCCOC4)C[C@@H]3C)c(-c3cc(C)no3)c(C)c2c1	10 to 100 nM
CCc1cc(-c2ccnn2C)c2nc(N3CCC(N)CC3)c(-c3ccn(C)n3)c(C)c2c1	≥ 100 nM
CCc1cc(F)c2nc(N3CC[C@H]4[C@H](CCN4[C@@H]4CCOC4)C3)c(-c3ccn(C)n3)c(C)c2c1	1 to 10 nM
CCc1cc(F)c2nc(N3CCN(C(=O)[C@@H](C)N(CC)CC)C[C@H]3C)c(-c3nc(C)no3)c(C)c2c1	1 to 10 nM

###

# TESTED_ON: UniProt P41145
# EXPERIMENT_DESCRIPTION: OPRKappa 1 Tango B-Arrestin Assay, antagonist mode (Tango OPRK1-bla U2OS cells, U50488 EC80 challenge)
# RUN_CONDITIONS: antagonist mode, Tango OPRK1-bla U2OS cells, 6 nM U50488 challenge
Known IC50 of a selection of compounds

COMPOUND	IC50
CCc1cc(F)c2nc(N3CCN(C(=O)C4CN(C)C4)C[C@H]3C)c(-c3nc(C)no3)c(C)c2c1	10 to 100 nM
CCc1cc(F)c2nc(N3CCN(C(=O)CN4CC[C@@H](F)C4)C[C@H]3C)c(-c3nc(C)no3)c(C)c2c1	1 to 10 nM
CCc1cc(F)c2nc(N3CCC(N[C@H]4CCCC(F)(F)C4)CC3)c(-c3cc(C)n(C)n3)c(C)c2c1	1 to 10 nM
CCc1cc(F)c2nc(N3CC[C@@H]4[C@@H](CCN4C[C@@H]4CCOC4)C3)c(-c3ccn(C)n3)c(C)c2c1 (stereo in doubt)	≥ 100 nM
CCc1cc(F)c2nc(N3CCN(/C(=N/C#N)NC[C@H](Cc4ccc(O)cc4)N(C)C)C[C@H]3C)c(-c3nc(C)no3)c(C)c2c1	10 to 100 nM
CCc1cc(F)c2nc(N3CCN(C(=O)[C@H](C)N4CC[C@@H](F)C4)C[C@H]3C)c(-c3nc(C)no3)c(C)c2c1 (stereo in doubt)	1 to 10 nM
CCc1cc(F)c2nc(N3CCN(C(=O)[C@@H]4CCCN4C)C[C@H]3C)c(-c3ccn(C)n3)c(C)c2c1	10 to 100 nM
CCc1cc(F)c2nc(N3CC[C@H](N[C@@H]4CCCOC4)C[C@H]3C)c(-c3ccn(C)n3)c(C)c2c1	< 1 nM
CCc1cc(F)c2nc(N3CCN(CC4CCOCC4)[C@@H](C)C3)c(-c3nc(C)no3)c(C)c2c1	10 to 100 nM
CCc1cc(F)c2nc(N3CCN(CC(C)C)C[C@H]3C)c(-c3nc(C)no3)c(C)c2c1	< 1 nM
CCc1cc(F)c2nc(N3CCC(N[C@@H]4CCOC4)CC3)c(-c3cc(C)n(C)n3)c(C)c2c1	1 to 10 nM
CCc1cc(F)c2nc(N3CC[C@@H]4[C@@H](CCN4C[C@@H]4CCCOC4)C3)c(-c3ccn(C)n3)c(C)c2c1 [Compound 128]	≥ 100 nM
CCc1cc(-c2ccn(C)n2)c2nc(N3CCC(N[C@@H]4CCOC4)CC3)c(-c3ccn(C)n3)c(C)c2c1	< 1 nM
CCc1cc(-c2ccnn2C)c2nc(N3CCC(N[C@H]4CCOC[C@@H]4F)CC3)c(-c3ccn(C)n3)c(C)c2c1	< 1 nM
CCc1cc(C#N)c2nc(N3CCC(N[C@H]4CCOC[C@@H]4F)CC3)c(-c3ccn(C)n3)c(C)c2c1	< 1 nM
CCc1cc(F)c2nc(N3CC[C@H](N[C@@H]4CCOC4)C[C@H]3C)c(-c3ccn(C)n3)c(C)c2c1	< 1 nM
CCc1cc(F)c2nc(N3CCC(N[C@@H]4CCOC[C@H]4F)CC3)c(-c3cc(C)n(C)n3)c(C)c2c1	10 to 100 nM

The reported numbers originate from patent US20260115185A1.
